Data provenance is ChEMBL document CHEMBL4138123.

Tested on: SNB-19
Assay: Cytotoxicity against human SNB19 cells assessed as cell growth at 0.1 uM after 48 hrs by sulforhodamine B assay relative to control
Assay type: functional
Settings: SNB-19, 48 h, read-out: Activity
recorded-endpoint: growth at 0.1 µM (%)
Express the result in % but write the number alone.

Prompt line: Indicate its recorded growth at 0.1 µM; the compound in question is COc1cc(-c2cc(/C=C/C(=O)c3ccc(F)c(F)c3)[nH]n2)cc(OC)c1OC
Response line: 87

Prompt line: Indicate its recorded growth at 0.1 µM; the compound in question is COc1ccc(-c2cc(/C=C/C(=O)c3ccc(N)cc3)[nH]n2)cc1OC
Response line: 90

Prompt line: Indicate its recorded growth at 0.1 µM; the compound in question is COc1ccc(C(=O)/C=C/c2cc(-c3cc(OC)c(OC)c(OC)c3)n[nH]2)cc1OC
Response line: 93

Moving on to the next compound.
Prompt line: Indicate its recorded growth at 0.1 µM; the compound in question is COc1cc2c(cc1OC)C(=O)/C(=C/c1cc(-c3ccc4c(c3)OCO4)n[nH]1)C2
Response line: 98
